Reported TGI values follow for various molecules
# Tested on: MDA-N
# experimental-protocol: NCI tumour cell line growth inhibition, 48 h
metric: TGI

[[record]]
molecule = "[N-]=[N+]=CC(=O)OCC1SCCCS1"
metric = "TGI"
measured_result = "> 100 µM"

[[record]]
molecule = "Cc1sc(/N=C/c2c[nH]c3ccccc23)c(C#N)c1C"
metric = "TGI"
measured_result = "> 100 µM"

[[record]]
molecule = "C1CCC(OC2CSC2)OC1 (stereo not given)"
metric = "TGI"
measured_result = "> 100 µM"

[[record]]
molecule = "CCCCCCCCCCCCCCCCCCNc1ccn(C2OC(COP(=O)(O)OCC3OC(n4cc(C)c(=O)[nH]c4=O)CC3N=[N+]=[N-])C(O)C2O)c(=O)n1 (stereo not given)"
metric = "TGI"
measured_result = "> 100 µM"

[[record]]
molecule = "COc1ccc(N=N/C(=N/NC(=O)c2ccccc2)c2ccc(N(CCC#N)CCC#N)cc2C)cc1"
metric = "TGI"
measured_result = "44.4 µM"

[[record]]
molecule = "COc1ccc(/C=C\\c2cc(OC)c(OC)c(OC)c2)cc1OC(=O)CCC(=O)O"
metric = "TGI"
measured_result = "> 100 µM"

[[record]]
molecule = "COC(=O)c1cc(C#N)[nH]c1-c1ccc(C)s1"
metric = "TGI"
measured_result = "> 100 µM"

[[record]]
molecule = "Cc1cc(-c2nc3ccccc3s2)ccc1NC(=O)[C@H](C)N"
metric = "TGI"
measured_result = "24.1 µM"

[[record]]
molecule = "CC(=O)OC1CC2(O)C3CCC4CC(O)CCC4(C)C3CCC2(C)C1C1=CC(=O)OC1 (stereo not given)"
metric = "TGI"
measured_result = "0.317 µM"

[[record]]
molecule = "O=C(CCCCCCCCC(=O)N1C(=O)CC(=O)N(c2cccc(Cl)c2)C1=S)N1C(=O)CC(=O)N(c2cccc(Cl)c2)C1=S"
metric = "TGI"
measured_result = "> 100 µM"


###

Reported TGI values follow for various compounds
# Test system: M14 melanoma
# experimental-protocol: NCI tumour cell line growth inhibition, 48 h
metric: TGI

[[record]]
compound = "COc1ccc2c(c1)n([O-])c(C#N)c(N1CCN(c3ccc([N+](=O)[O-])cc3)CC1)[n+]2=O"
measured_result = "> 100 µM"

[[record]]
compound = "CC(=O)OC1CC2(O)C3CCC4CC(O)CCC4(C)C3CCC2(C)C1C1=CC(=O)OC1 (stereo unspecified)"
measured_result = "0.367 µM"

[[record]]
compound = "N#CCc1ncc(-c2ccc(C(F)(F)F)cc2)c(NC2CCCCCC2)n1"
measured_result = "> 10 µM"

[[record]]
compound = "COc1cccc(/C=C/c2cnc3ccccc3n2)c1OC"
measured_result = "> 100 µM"

[[record]]
compound = "O=c1c2cc(I)ccc2nc(Sc2ncccc2[N+](=O)[O-])n1Cc1ccccc1"
measured_result = "> 100 µM"

[[record]]
compound = "Cc1[nH]c2ccccc2c1C=Nc1ccc(N=Cc2c(C)[nH]c3ccccc23)cc1"
measured_result = "> 100 µM"

[[record]]
compound = "Cc1cc(S(=O)(=O)O)c(NC(=O)C(=O)C2C=CCS2(=O)=O)cc1Cl (stereo unspecified)"
measured_result = "> 100 µM"

[[record]]
compound = "O=C1CN(C(=O)c2ccccc2)Cc2[nH]c3ccccc3c21"
measured_result = "> 100 µM"

[[record]]
compound = "C=CCC1(O)c2cccc(NCCO)c2C(=O)c2c(NCCO)cccc21"
measured_result = "> 100 µM"

[[record]]
compound = "O=Nc1ccc2ccccc2c1O"
measured_result = "16.5 µM"

[[record]]
compound = "O=C(O)c1cc2cc(OCc3ccccc3)c(OCc3ccccc3)cc2[nH]1"
measured_result = "60.8 µM"

[[record]]
compound = "NC(=S)Nc1[nH]c(=S)nc2c1SC1=N/C(=C\\c3ccco3)C(=O)N12"
measured_result = "> 100 µM"

[[record]]
compound = "O=C(Cc1cccc(OC(F)(F)F)c1)Nc1ccc(CCCCc2nnc(NC(=O)Cc3ccccn3)s2)nn1"
measured_result = "> 100 µM"

[[record]]
compound = "O=C1COc2ccc([N+](=O)[O-])cc2C(=O)C1"
measured_result = "> 10 µM"

[[record]]
compound = "O=C(C(=O)N1CC2C=CC1CC2)c1c[nH]c2ccccc12 (stereo unspecified)"
measured_result = "> 100 µM"

[[record]]
compound = "CC(C)c1ccc(/C=C2\\CSCC3=C2NC(=S)NC3c2ccc(C(C)C)cc2)cc1 (stereo unspecified)"
measured_result = "> 100 µM"

[[record]]
compound = "C#CC(F)(F)[C@]1(O)CC[C@H]2[C@@H]3CCC4=CC(=O)CCC4=C3[C@@H](c3ccc(C(C)=O)cc3)C[C@@]21C"
measured_result = "> 84.9 µM"

[[record]]
compound = "O=c1[nH]nc(-c2ccccc2)n1/N=C/c1c(O)ccc2ccccc12"
measured_result = "> 100 µM"

[[record]]
compound = "CCSC1=C(C)N(C=NC(C)(C)C)CC1"
measured_result = "> 100 µM"

[[record]]
compound = "c1ccc(-n2nnnc2-c2cccc3ccccc23)cc1"
measured_result = "8.81 µM"

[[record]]
compound = "COc1cc(CC2c3cc(OC)c(OC)cc3CCN2C)c(Oc2cc3c(cc2OC)-c2c(O)c(OC)cc4c2C(C3)N(C)CC4)cc1OC (stereo unspecified)"
measured_result = "22.8 µM"


###

# Tested on: A549 NSCLC
# experimental-protocol: NCI tumour cell line growth inhibition, 48 h
metric: TGI

[[record]]
molecule = "COc1cc(/C=C2\\CCC(CN(C)C)C2=O)ccc1OC(=O)c1ccccc1 (stereo unspecified)"
measured_result = "51.5 µM"

[[record]]
molecule = "CCN(CCCl)CCCNc1c2ccccc2nc2ccc(OC)cc12"
measured_result = "1300 µM"

[[record]]
molecule = "COc1cc(/C=C2\\N=C(c3ccccc3)N(c3nc4c(OC)ccc(OC)c4s3)C2=O)cc(OC)c1OC"
measured_result = "> 100 µM"

[[record]]
molecule = "COC(=O)/C=C(/C(=O)OC)c1c(C)c(C)c2c(C)cc(C)cc(C)c1-2"
measured_result = "> 100 µM"

[[record]]
molecule = "NC(=O)c1ccc2c(c1)S(=O)(=O)c1ccccc1C2=O"
measured_result = "> 100 µM"

[[record]]
molecule = "C=C1C(=O)OCC2C(C(=O)O)=CC3C(C)C(C)=CC123 (stereo unspecified)"
measured_result = "77.1 µM"

[[record]]
molecule = "CN(C)CCNC(=O)c1cccc2nc3c(nc12)-c1ccccc1C3=O"
measured_result = "37.7 µM"

[[record]]
molecule = "O=C(N/N=C/c1ccccc1O)C(=O)Nc1ccc(F)cc1"
measured_result = "> 100 µM"

[[record]]
molecule = "C=CCC1(O)c2cccc(NCCO)c2C(=O)c2c(NCCO)cccc21"
measured_result = "> 100 µM"

[[record]]
molecule = "O=c1c(C=Nc2ccc([N+](=O)[O-])cc2)c(O)n(-c2ccccc2)c(=O)n1-c1ccccc1"
measured_result = "> 100 µM"

[[record]]
molecule = "O=C(C(=O)N1CC2C=CC1CC2)c1c[nH]c2ccccc12 (stereo unspecified)"
measured_result = "> 100 µM"

[[record]]
molecule = "Cc1ccc(SC2=CC(=O)c3nc4ccccc4c4ccnc2c34)cc1"
measured_result = "> 100 µM"

[[record]]
molecule = "COc1ccc(/C(=N/Nc2ccccc2)C(c2ccc(OC)cc2)C2OC(=O)c3ccccc32)cc1 (stereo unspecified)"
measured_result = "> 100 µM"

[[record]]
molecule = "O=C(c1ccccc1)c1ccc2nc(-c3c(Cl)c(Cl)c(Cl)c(Cl)c3C(=O)N/N=C/c3ccccc3)[nH]c2c1"
measured_result = "> 100 µM"

[[record]]
molecule = "c1ccc2c(c1)CCc1cc3cc4c(nc3nc1-2)-c1ccccc1CC4"
measured_result = "> 100 µM"

[[record]]
molecule = "O=S1(=O)c2ccccc2C(=NO)c2ccccc21"
measured_result = "> 100 µM"

[[record]]
molecule = "O=C1CN(C(=O)c2ccccc2)Cc2[nH]c3ccccc3c21"
measured_result = "> 100 µM"

[[record]]
molecule = "O=C1/C(=C/c2ccccc2[N+](=O)[O-])N=C(c2ccccc2)N1C1Nc2cc3c(cc2S1)NC(N1C(=O)/C(=C/c2ccccc2[N+](=O)[O-])N=C1c1ccccc1)S3 (stereo unspecified)"
measured_result = "> 100 µM"

[[record]]
molecule = "COP(=O)(OC)C(Cc1c[nH]c2ccccc12)NC(=O)OCc1ccccc1 (stereo unspecified)"
measured_result = "> 100 µM"

[[record]]
molecule = "CC(C)(C)C1(COC(=O)c2ccc(N)cc2)COC1"
measured_result = "> 100 µM"

[[record]]
molecule = "c1ccc2c(c1)nc(NC1CCCC1)c1[nH]c(C3CCCC3)nc12"
measured_result = "58.8 µM"

